assay.name: Three-treatment crossover pharmacokinetics of IN nalmefene, three dosing regimens (Example 13)
assay.setup: human, plasma, other: intranasal (IN spray), 6 mg, […], Mean; Time 0.0416; T3: 6 mg nalmefene HCl IN, two 0.1 mL sprays in one nostril
recorded.metric: concentration at 2.5 min (ng/mL)
Answers are plain numbers, in ng/mL.

# concentration at 2.5 min of C=C1CC[C@@]2(O)[C@H]3Cc4ccc(O)c5c4[C@@]2(CCN3CC2CC2)[C@H]1O5 = 1.35

----------
assay.name: Two-period crossover pharmacokinetics of nalmefene 3 mg IN vs 1.0 mg IM (Example 12)
assay.setup: human, plasma, im, 1 mg, Cmax, Treatment B: IM 1.0 mg nalmefene hydrochloride; plasma; Geo. Mean, n=68
recorded.metric: Cmax (ng/mL)
Answers are plain numbers, in ng/mL.

# Cmax of C=C1CC[C@@]2(O)[C@H]3Cc4ccc(O)c5c4[C@@]2(CCN3CC2CC2)[C@H]1O5 [Nalmefene] = 1.5

----------
assay.name: Two-period crossover pharmacokinetics of nalmefene 3 mg IN vs 1.0 mg IM (Example 12)
assay.setup: human, plasma, im, 1 mg, AUC0-5 min, Treatment B: 1.0 mg nalmefene IM (gluteal muscle); plasma; Geo. Mean, n 68
recorded.metric: AUC(0-t) (ng·h/mL)
Give bare numbers, in ng·h/mL.

# AUC(0-t) of C=C1CC[C@@]2(O)[C@H]3Cc4ccc(O)c5c4[C@@]2(CCN3CC2CC2)[C@H]1O5 = 0.0102

----------
assay.name: Three-treatment crossover pharmacokinetics of IN nalmefene, three dosing regimens (Example 13)
assay.setup: human, plasma, other: intranasal, 3 mg, […], Mean, T1 (3 mg IN, one spray in one nostril); time 0.250
recorded.metric: concentration at […] (ng/mL)
Numbers only, in ng/mL.

# concentration at […] of C=C1CC[C@@]2(O)[C@H]3Cc4ccc(O)c5c4[C@@]2(CCN3CC2CC2)[C@H]1O5 = 9.17

----------
assay.name: Two-period crossover pharmacokinetics of nalmefene 3 mg IN vs 1.0 mg IM (Example 12)
assay.setup: human, plasma, other: intranasal, 3 mg, AUC0-10 min, Treatment A: 3.0 mg nalmefene hydrochloride IN; plasma; Mean, n 66
recorded.metric: AUC(0-t) (ng·h/mL)
One number for each entry, in ng·h/mL.

# AUC(0-t) of C=C1CC[C@@]2(O)[C@H]3Cc4ccc(O)c5c4[C@@]2(CCN3CC2CC2)[C@H]1O5 = 0.787

----------
assay.name: Two-period crossover pharmacokinetics of nalmefene 3 mg IN vs 1.0 mg IM (Example 12)
assay.setup: human, plasma, other: intranasal, 3 mg, AUC0-20 min, GeoMean, Treatment A 3.0 mg IN (Test)
recorded.metric: AUC(0-t) (ng·h/mL)
Answers are plain numbers, in ng·h/mL.

# AUC(0-t) of C=C1CC[C@@]2(O)[C@H]3Cc4ccc(O)c5c4[C@@]2(CCN3CC2CC2)[C@H]1O5 = 1.87

----------
assay.name: Three-treatment crossover pharmacokinetics of IN nalmefene, three dosing regimens (Example 13)
assay.setup: human, plasma, other: intranasal, 3 mg, […], Mean, T1 (3 mg IN, one spray in one nostril); time 0.0833
recorded.metric: concentration at […]
Form field: result (number plus unit)

# concentration at […] of C=C1CC[C@@]2(O)[C@H]3Cc4ccc(O)c5c4[C@@]2(CCN3CC2CC2)[C@H]1O5 = 2.38 ng/mL
